# Tested on: GT-1a pRLuc H771b 75 S/I subgenomic replicon cell line
# assayDetails: HCV GT-1a replicon luciferase reporter assay
# Format: cell-based
# conditionsUsed: Hepatitis C virus, GT1A, 72 h, read-out: GT-1a (IC50) (nM)
# Protocol: Determination of compounds HCV GT1b inhibitory replicon activity using the replicon luciferase reporter assay […] 2209-23 cells were plated at a cell density of 5000 cells per well in 96 well plates (Becton Dickinson, Cat #35 3296). […] Renilla luciferase reporter signal was read 72 hours after addition of compounds using the Renilla Luciferase Assay System (Promega, cat #E2820). […]
experimentalReadout: log10 of IC50 (log10 of the value in nM)

| molecule | testedTarget | quantitativeResult |
| --- | --- | --- |
| COC(=O)N[C@H]1CCc2cccc3c2N(C1=O)[C@H](c1ncc(-c2ccc(-c4ccc(-c5nnc([C@@H]6CCCN6C(=O)[C@@H](NC(=O)OC)C(C)C)[nH]5)cc4)cc2)[nH]1)C3 | GT-1a pRLuc H771b 75 S/I subgenomic replicon cell line | 1.83 |
| COC(=O)N[C@H]1CCc2cccc3c2N(C1=O)[C@H](c1ncc(-c2ccc(-c4ccc(-c5cnc([C@@H]6C[C@H](C#N)CN6C(=O)[C@@H](NC(=O)OC)C(C)C)[nH]5)cc4)cc2)[nH]1)C3 | GT-1a pRLuc H771b 75 S/I subgenomic replicon cell line | 0.89 |
| CC[C@H](C)[C@H](NC(=O)OC)C(=O)N1CCC[C@H]1c1ncc(-c2ccc3nc(-c4ccc(-c5cnc([C@@H]6Cc7cccc8c7N6C(=O)[C@@H](NC(=O)OC)CC8)[nH]5)cc4)cnc3c2)[nH]1 | GT-1a pRLuc H771b 75 S/I subgenomic replicon cell line | 0.13 |
| COC(=O)N[C@H]1CCc2cccc3c2N(C1=O)[C@H](c1ncc(-c2ccc(-c4ccc(-c5cnc([C@@H]6CCCN6C(=O)[C@@H](NC(=O)OC)C6CC6)[nH]5)cc4)cc2)[nH]1)C3 | GT-1a pRLuc H771b 75 S/I subgenomic replicon cell line | 1.06 |
| COC(=O)N[C@H]1CCc2cccc3c2N(C1=O)[C@H](c1ncc(-c2ccc(-c4ccc(-c5cnc([C@@H]6CCCN6C(=O)[C@@H](NC(=O)OC)C(C)C)[nH]5)cc4F)cc2)[nH]1)C3 | GT-1a pRLuc H771b 75 S/I subgenomic replicon cell line | 0.72 |

---

Recorded IC50 for the following compounds
# Tested on: GT-1a pRLuc H771b 75 S/I subgenomic replicon cell line
# assayDetails: HCV GT-1a replicon luciferase reporter assay
# Type: cell-based
# conditionsUsed: Hepatitis C virus, GT1A, 72 h, read-out: GT-1a (IC50) (nM)
Where a name gives a salt, the structure may show the parent alone.

| compound | IC50 / nM |
| --- | --- |
| CC[C@H](C)[C@H](NC(=O)OC)C(=O)N1CCC[C@H]1c1ncc(-c2ccc(-c3cnc4cc(-c5cnc([C@@H]6Cc7cccc8c7N6C(=O)[C@@H](NC(=O)OC)CC8)[nH]5)ccc4n3)cc2)[nH]1 [Compound I-56] | 3 |
| COC(=O)N[C@H]1CCc2cccc3c2N(C1=O)[C@H](c1ncc(-c2cnc(-c4ccc(-c5cnc([C@@H]6CCCN6C(=O)[C@@H](NC(=O)OC)C(C)C)[nH]5)cc4)nc2)[nH]1)C3 [Compound I-15] | 13.4 |
| COC(=O)N[C@H]1CCc2cccc3c2N(C1=O)[C@H](c1ncc(-c2cnc4cc(-c5ccc(-c6[nH]c([C@@H]7CCCN7C(=O)[C@@H](NC(=O)OC)C(C)C)nc6Cl)cc5)ccc4c2)[nH]1)C3 [Compound I-20, trifluoroacetic acid salt] | 12 |
| COC(=O)N[C@H]1CCc2cccc3c2N(C1=O)[C@H](c1ncc(-c2ccc(-c4ccc(-c5ccc6nc([C@@H]7CC(F)(F)CN7C(=O)[C@@H](NC(=O)OC)C(C)C)[nH]c6c5)cc4)cc2)[nH]1)C3 [Compound I-4] | 4.11 |
| COC(=O)N[C@H]1CC(O)c2cccc3c2N(C1=O)[C@H](c1ncc(-c2ccc(-c4ccc(-c5cnc([C@@H]6CCCN6C(=O)[C@@H](NC(=O)OC)C(C)C)[nH]5)cc4)cc2)[nH]1)C3 (stereo partly drawn) [Compound I-29] | 1.02 |
| COC(=O)N[C@H]1CCc2cccc3c2N(C1=O)[C@H](c1ncc(-c2cnc4cc(-c5ccc(-c6cnc([C@@H]7CCCN7C(=O)[C@@H](NC(=O)OC)C(C)C)[nH]6)cc5)ccc4c2)[nH]1)C3 [Compound I-18] | 21.6 |
| COC(=O)N[C@H]1CCc2cccc3c2N(C1=O)[C@H](c1ncc(-c2ccc(-c4ccc5nc([C@@H]6CCCN6C(=O)[C@@H](NC(=O)OC)C(C)C)[nH]c5c4)cc2)[nH]1)C3 [Compound I-3] | 660 |
| COC(=O)N[C@H]1CCc2cccc3c2N(C1=O)[C@H](c1nc2ccc(-c4ccc5nc(-c6ccc7nc([C@@H]8CCCN8C(=O)[C@@H](NC(=O)OC)C(C)C)[nH]c7c6)cnc5c4)cc2[nH]1)C3 [Compound I-6] | 17.5 |
| COC(=O)N[C@H]1CCc2cccc3c2N(C1=O)[C@H](c1ncc(-c2ccc(-c4ncc(-c5cnc([C@@H]6CC(F)(F)CN6C(=O)[C@@H](NC(=O)OC)C(C)C)[nH]5)cn4)cc2)[nH]1)C3 [Compound I-57] | 17.1 |
